- test description: recombinant barcode read abundance after kanamycin selection (control-corrected) (log10(CPM+1)); higher = more efficient recombination; sequences stand for … in AGTGCAGAGAAAATCGGCCAGTTTTCTCTGCCTGCAGTCCGCATGCCGT…AGATTTATGCAGCGGACTGCCTTTCTCCCAAAGTGATAAACCGGACAGTATCATGGACCGGTTTTCCCGGTAATCCGTATTTGCAAGGTTGGTTTCACT; site = the 11-nt target
Label MET for high-side recombinant barcode read abundance (log10) (at or above 0.5) and NOT MET for low-side recombinant barcode read abundance (log10) (below it).

Q: Given ATACGTACTTGGGTTCTAACCTGTTGCCT (site CTACGTACTAG) , state whether its recombinant barcode read abundance (log10) is at least 0.5.
Result: NOT MET

Q: And for TGTCCCTCTTGGGTTCTAACCTGTTGCCT (site TGTTCCTCTAG) ?
Result: NOT MET

Q: And for ACCCACACTTGGGTTCTAACCTGTTGCCG (site TCCCACACTTG) ?
Result: NOT MET

Q: And for CGAATCCCTTGGGTTCTAACCTGTTGCCT (site CGAATCTCTAG) ?
Result: NOT MET

Q: And for AGAGGGACTTGGGTTCTAACCTGTTGCCT (site AGAGTGACTAG) ?
Result: NOT MET

Q: And for ATGGGCCCTTGGGTTCTAACCTGTTGCTT (site ATGGGCCCTGA) ?
Result: NOT MET

Q: And for TATCGTCCTTGGGTTCTAACCTGTTGCAT (site TATCGTCCTAT) ?
Result: MET

Q: And for CGTTCTCCTTGGGTTCTAACCTGTTGCTA (site CGTTCTCCTTA) ?
Result: MET

Q: And for CTCGGACCTTGGGTTCTAACCTGTTGCCT (site CTCGGACCTAG) ?
Result: MET

====

- test description: recombinant UMI read abundance after kanamycin selection (control-corrected) (log10(CPM+1)); higher = more efficient recombination; extreme values may be limits of the assay; sequences stand for … in AGTGCAGAGAAAATCGGCCAGTTTTCTCTGCCTGCAGTCCGCATGCCGTGGGACCCCTTGGGTTCTAACCTGTTGCCTAGATTTATGCAGCGGACTGCCTTTCTCCCAAAGTGATAAACCGG…AGGTTGGTTTCACT; site = the 11-nt donor
Give recombinant UMI read abundance (log10) for every item shown.
# answer = number (no unit)

Q: # recombinant UMI read abundance (log10) lookup, item ACGAGTGCATGGACCGGTTTTCCCGGTAATCCGTATTTGGT (site ACGAGTGCTAC)
Result: 2.31

Q: And for CATGCAGCATGGACCGGTTTTCCCGGTAATCCGTATTTGCT (site CACGCAGCTAG) ?
Result: 1.29

Q: And for CTGGCTCCATGGACCGGTTTTCCCGGTAATCCGTATTTGGC (site CTGGCTCCTGC) ?
Result: 0.763

Q: And for GCCGATGCATGGACCGGTTTTCCCGGTAATCCGTATTTGGC (site GCCGATGCTGC) ?
Result: 0.846

Q: And for CAATGCTCATGGACCGGTTTTCCCGGTAATCCGTATTTGAA (site CAATGCTCTCT) ?
Result: 0.924

Q: And for ATATCTACATGGACCGGTTTTCCCGGTAATCCGTATTTGTG (site AAATCTACTCA) ?
Result: 0.252

Q: And for TAGAATACATGGACCGGTTTTCCCGGTAATCCGTATTTGCA (site TAGAATTCTTG) ?
Result: 0

Q: And for ATATCTACATGGACCGGTTTTCCCGGTAATCCGTATTTGTG (site ATATCTACTCA) ?
Result: 0.895

Q: And for CAAACATCATGGACCGGTTTTCCCGGTAATCCGTATTTGCT (site CGATCATCTAG) ?
Result: 0

====

- test description: recombinant UMI read abundance after kanamycin selection (control-corrected) (log10(CPM+1)); higher = more efficient recombination; extreme values may be limits of the assay; sequences stand for … in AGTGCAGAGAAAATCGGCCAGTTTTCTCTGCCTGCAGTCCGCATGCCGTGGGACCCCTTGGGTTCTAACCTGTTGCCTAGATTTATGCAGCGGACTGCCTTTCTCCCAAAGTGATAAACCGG…AGGTTGGTTTCACT; site = the 11-nt donor
observable: recombinant UMI read abundance (log10)

Q: # recombinant UMI read abundance (log10) lookup, item GCGACGCCATGGACCGGTTTTCCCGGTAATCCGTATTTGTA (site GCTACGCCTTA)
Result: 0.019

Q: And for GGTACGCCATGGACCGGTTTTCCCGGTAATCCGTATTTGTT (site GGTACGACTAA) ?
Result: 0.0526

Q: And for TAATAAGCATGGACCGGTTTTCCCGGTAATCCGTATTTGGG (site TAATCAGCTCC) ?
Result: 0.012

Q: And for GGAGTGGCATGGACCGGTTTTCCCGGTAATCCGTATTTGAT (site GGAGTGGCTAT) ?
Result: 1.87

Q: And for CGATCATCATGGACCGGTTTTCCCGGTAATCCGTATTTGCT (site GGATCGTCTAG) ?
Result: 0.00614

Q: And for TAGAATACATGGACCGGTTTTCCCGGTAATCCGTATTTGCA (site TACAATACTTG) ?
Result: 0.745

Q: And for GTGAAGGCATGGACCGGTTTTCCCGGTAATCCGTATTTGTG (site GTGCAGGCTCA) ?
Result: 0.498

Q: And for CACGGCTCATGGACCGGTTTTCCCGGTAATCCGTATTTGTT (site CACGGCCCTAA) ?
Result: 0.277

Q: And for TTTGGCCCATGGACCGGTTTTCCCGGTAATCCGTATTTGCC (site TTTGGCCCTGG) ?
Result: 0

====

- test description: recombinant barcode read abundance after kanamycin selection (control-corrected) (log10(CPM+1)); higher = more efficient recombination; sequences stand for … in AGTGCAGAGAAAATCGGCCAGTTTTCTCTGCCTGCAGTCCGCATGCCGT…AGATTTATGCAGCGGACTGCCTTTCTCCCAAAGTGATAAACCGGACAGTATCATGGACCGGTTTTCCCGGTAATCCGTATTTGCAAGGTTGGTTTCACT; site = the 11-nt target
Note to self: class = bucket of recombinant barcode read abundance (log10), per interval 1: < 0.04; interval 2: ≥ 0.04 and < 0.3; interval 3: ≥ 0.3

Q: Exercise: read the entry TATTGGACTTGGGTTCTAACCTGTTGCAA (site TATTGGACTAT) and state which class it falls under.
Result: interval 2

Q: And for ATGGGCCCTTGGGTTCTAACCTGTTGCTT (site ATGGGCCCTCA) ?
Result: interval 1

Q: And for AATTCACCTTGGGTTCTAACCTGTTGCCT (site GATTCACCTAG) ?
Result: interval 1

Q: And for TTGAGTCCTTGGGTTCTAACCTGTTGCCT (site TTGGGTCCTAC) ?
Result: interval 3

Q: And for AGATTTACTTGGGTTCTAACCTGTTGCCT (site AAACTTACTAG) ?
Result: interval 3

Q: And for TTATTCACTTGGGTTCTAACCTGTTGCCT (site TTATTCACTAG) ?
Result: interval 3

Q: And for AGGGAGACTTGGGTTCTAACCTGTTGCCA (site AGGTAGACTTG) ?
Result: interval 1

Q: And for TAACACTCTTGGGTTCTAACCTGTTGCTT (site TAACACTCTAA) ?
Result: interval 3

Q: And for TGTACCTCTTGGGTTCTAACCTGTTGCCT (site TGTTCCTCTAG) ?
Result: interval 2

====

Give recombinant UMI read abundance (log10) for every item shown.
- test description: recombinant UMI read abundance after kanamycin selection (control-corrected) (log10(CPM+1)); higher = more efficient recombination; extreme values may be limits of the assay; sequences stand for … in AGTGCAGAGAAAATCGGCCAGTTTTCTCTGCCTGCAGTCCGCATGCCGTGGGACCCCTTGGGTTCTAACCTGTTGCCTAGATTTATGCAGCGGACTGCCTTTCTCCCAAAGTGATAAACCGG…AGGTTGGTTTCACT; site = the 11-nt donor

Q: # recombinant UMI read abundance (log10) lookup, item AGCTGAGCATGGACCGGTTTTCCCGGTAATCCGTATTTGGG (site AGCTGAGCTCC)
Result: 0.385

Q: And for GTTACGTCATGGACCGGTTTTCCCGGTAATCCGTATTTGTT (site GATACGTCTAA) ?
Result: 0.0159

Q: And for CCGTAAGCATGGACCGGTTTTCCCGGTAATCCGTATTTGTG (site CCGTGAGCTCA) ?
Result: 0.011

Q: And for AACTTGCCATGGACCGGTTTTCCCGGTAATCCGTATTTGGC (site AACTTGCCTGC) ?
Result: 0

Q: And for TCCACCGCATGGACCGGTTTTCCCGGTAATCCGTATTTGCG (site TCCACCGCTGG) ?
Result: 0

Q: And for GTTCGAGCATGGACCGGTTTTCCCGGTAATCCGTATTTGGA (site GTTCGAGCTTG) ?
Result: 0

Q: And for CAAGCGCCATGGACCGGTTTTCCCGGTAATCCGTATTTGGG (site CAAGCGCCTCG) ?
Result: 0.0252

Q: And for ACGGAATCATGGACCGGTTTTCCCGGTAATCCGTATTTGTC (site ACGGAATCTGA) ?
Result: 1.95

Q: And for CACAAACCATGGACCGGTTTTCCCGGTAATCCGTATTTGGT (site AACAAACCTAC) ?
Result: 0

Q: And for TATAAGACATGGACCGGTTTTCCCGGTAATCCGTATTTGAC (site TATAAGACTGT) ?
Result: 2.01

Q: And for GTGCACGCATGGACCGGTTTTCCCGGTAATCCGTATTTGGT (site GTGCATGCTAC) ?
Result: 0.0143

Q: And for CACAGATCATGGACCGGTTTTCCCGGTAATCCGTATTTGAT (site CACAGATCTAT) ?
Result: 2.37

Q: And for CGCCGGACATGGACCGGTTTTCCCGGTAATCCGTATTTGCT (site CGCCGAACTAG) ?
Result: 2.52

Q: And for CACTTCTCATGGACCGGTTTTCCCGGTAATCCGTATTTGGG (site CTCTTCTCTCC) ?
Result: 0

Q: And for ACAACTACATGGACCGGTTTTCCCGGTAATCCGTATTTGTG (site ACAGCTACTCA) ?
Result: 0.0923

Q: And for AACTCCTCATGGACCGGTTTTCCCGGTAATCCGTATTTGCC (site CACTCCTCTGG) ?
Result: 2.43

Q: And for AAAGTAACATGGACCGGTTTTCCCGGTAATCCGTATTTGCT (site AATGTAACTAG) ?
Result: 2.1

Q: And for AGCCTATCATGGACCGGTTTTCCCGGTAATCCGTATTTGTT (site AGCCTAGCTAA) ?
Result: 0.0191
